Just for reference, the supplement of paper PMC9112550 is where these values come from.

Test system: Escherichia coli TOP10
protocol-summary: shrunken log2 fold change of peptide-encoding DNA abundance (4.5 h post-induction vs induction); higher = less antimicrobial activity (less host growth inhibition)
condition-set: time post-induction: 4.5 h; library: site-saturation at positions 5, 18, 19, 20
shrunken log2 fold change reference
Answer with a bare number; do not write a unit.

| entry-sequence | tested-target | assay-value |
| --- | --- | --- |
| RRIRQRPPRLPRPRPRPDGLPRP | Escherichia coli TOP10 | -0.0465 |

QUERY: Value wanted: shrunken log2 fold change (Escherichia coli TOP10) of entry RRIRGRPPRLPRPRPRPGREPRP
RESULT: 0.217

QUERY: # query: shrunken log2 fold change | item RRIRGRPPRLPRPRPRPLICPRP | system: Escherichia coli TOP10;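 further: peptides expressed intracellularly from a pBAD plasmid library in pooled LB shake-flask culture, induced with 0.3% L-arabinose, DNA abundance read by NGS, three biological replicates, DESeq2 with apeglm shrinkage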
RESULT: 0.147
